# TARGET_SYSTEM: FGFR1 (Homo sapiens, UniProt P11362, C488A/C584S)
# Construct: made in house; host or cells: E. coli
# Sequence (P11362 with tags, fused parts or gaps C488A/C584S): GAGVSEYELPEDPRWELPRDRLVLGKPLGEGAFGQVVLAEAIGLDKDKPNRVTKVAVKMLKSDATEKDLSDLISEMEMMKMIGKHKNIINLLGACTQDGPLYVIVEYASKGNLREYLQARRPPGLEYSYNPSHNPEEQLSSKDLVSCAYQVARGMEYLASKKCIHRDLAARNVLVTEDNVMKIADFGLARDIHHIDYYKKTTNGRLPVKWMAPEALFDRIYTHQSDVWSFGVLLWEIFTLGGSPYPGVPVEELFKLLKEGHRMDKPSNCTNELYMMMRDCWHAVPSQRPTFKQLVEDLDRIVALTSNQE
# RUN_DESCRIPTION: ESI-CIU-IMS-MS collision-induced unfolding of FGFR1 after incubation with inhibitor
# TEST_SETTINGS: 24 V Trap, 11+ FGFR1 ions
# Method: FGFR1 (2 μM) and inhibitors (8 μM) were incubated separately in ammonium acetate (100 mM) for 1 h at room temperature prior to analysis. […] Samples were analysed by nano‐ESI from in‐house fabricated gold–palladium‐coated borosilicate capillaries assembled using a P‐97 micropipette puller (Sutter Instrument Co., Novato, CA, USA) and a sputter coater (Polaron SC7620; Quorum Technologies Ltd, Kent, UK). […]
Assign Intensity vs base peak (5.5 ms) of the unfolded conformer at ca 7.6 ms to each entry below.
The response must be a number in % with no trailing unit.

Query :: Which measured Intensity vs base peak (5.5 ms) of the unfolded conformer at ca 7.6 ms value corresponds to CCCc1cc(Nc2nc(NCc3ccccn3)ncc2Br)n[nH]1 [Compound D] ?
Result :: 43.2

Query :: Which measured Intensity vs base peak (5.5 ms) of the unfolded conformer at ca 7.6 ms value corresponds to CNC(=O)c1ccccc1Nc1cc(Nc2cn(C)nc2C)ncc1C(F)(F)F [Compound E] ?
Result :: 45.8

Query :: Which measured Intensity vs base peak (5.5 ms) of the unfolded conformer at ca 7.6 ms value corresponds to CC(C)Oc1cc(Nc2ccnc(NCc3cc(C4CC4)no3)n2)n[nH]1 [Compound B] ?
Result :: 50.8

Query :: Which measured Intensity vs base peak (5.5 ms) of the unfolded conformer at ca 7.6 ms value corresponds to Cc1ccc(F)c(NC(=O)Nc2ccc(-c3cccc4[nH]nc(N)c34)cc2)c1 [Linifanib] ?
Result :: 92.8

Query :: Which measured Intensity vs base peak (5.5 ms) of the unfolded conformer at ca 7.6 ms value corresponds to Cc1ccc(C(=O)Nc2ccc(CN3CCN(C)CC3)c(C(F)(F)F)c2)cc1C#Cc1cnc2cccnn12 [Ponatinib] ?
Result :: 71.2
